// provenance: ChEMBL document CHEMBL1148340

Listed compounds paired with reported pEC50
System: CCRF-CEM
measurement.description: Effective concentration required to inhibit HIV-2 induced cytopathicity in human CEM cell lines
Type: functional, cell-based
pEC50: −log10 of the molar value.

Before answering, review these 2 worked examples.
{"sample.smiles": "Cc1cn([C@@H]2O[C@H](CO[Si](C)(C)C(C)(C)C)[C@@]3(OS(=O)(=O)C=C3N)[C@H]2O[Si](C)(C)C(C)(C)C)c(=O)n(CCCO)c1=O", "result": "< 5.00"}
{"sample.smiles": "COC(=O)P(=O)(O)OCCCn1c(=O)c(C)cn([C@@H]2O[C@H](CO[Si](C)(C)C(C)(C)C)[C@@]3(OS(=O)(=O)C=C3N)[C@H]2O[Si](C)(C)C(C)(C)C)c1=O", "result": "< 4.30"}

### Prompt Note down pEC50 recorded for Cc1cn([C@@H]2O[C@H](CO[Si](C)(C)C(C)(C)C)[C@@]3(OS(=O)(=O)C=C3N)[C@H]2O[Si](C)(C)C(C)(C)C)c(=O)n(CCCOP(=O)(O)C(=O)OCc2ccccc2)c1=O
### Response < 4.30
